These entries and their values trace back to patent US20190071490A1.

- tgt: T1, rat α-CGRP (Rattus norvegicus, UniProt P01256)
- T1 construct: rat α (1-37); purchased GenScript Corporation or Global Peptide Services
- T1 sequence (P01256 83-119 limits assumed): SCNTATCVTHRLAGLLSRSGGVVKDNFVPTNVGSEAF
- procedure-text: Biacore SPR affinity of Fab fragments to N-biotinylated rat α-CGRP on SA chip
- Format: binding
- settings: 37° C., screening mode except underlined values
test-readout: α-rat koff (s⁻¹)
Answers are plain numbers, in s⁻¹.

// for each molecule below, give its α-rat koff
1. M78: G1 variant; L1 R28N T30S; L2 G50A L56T; H2 E54K A57N S58T; HC-FW3 L99T A100V (antibody, V domains shown) VH: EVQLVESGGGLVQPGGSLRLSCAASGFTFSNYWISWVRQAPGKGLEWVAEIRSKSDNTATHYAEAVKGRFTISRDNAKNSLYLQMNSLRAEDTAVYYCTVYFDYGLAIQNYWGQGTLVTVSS VL: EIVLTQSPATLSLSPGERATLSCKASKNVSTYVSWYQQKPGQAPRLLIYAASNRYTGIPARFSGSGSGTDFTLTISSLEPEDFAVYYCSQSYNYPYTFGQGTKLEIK
2. M61: G1 variant; L1 R28N T30G; L2 A51H; H2 E54Q A57N H61F; HC-FW3 L99T A100V (antibody, V domains shown) VH: EVQLVESGGGLVQPGGSLRLSCAASGFTFSNYWISWVRQAPGKGLEWVAEIRSQSDNSATFYAEAVKGRFTISRDNAKNSLYLQMNSLRAEDTAVYYCTVYFDYGLAIQNYWGQGTLVTVSS VL: EIVLTQSPATLSLSPGERATLSCKASKNVGTYVSWYQQKPGQAPRLLIYGHSNRYLGIPARFSGSGSGTDFTLTISSLEPEDFAVYYCSQSYNYPYTFGQGTKLEIK

[0.167, 0.00521]
